All figures here come from paper PMC5540273.

I'd be grateful if you could share measured %Inh for these entries.
System: GSK3B
Test settings: concentration: 1 μM, replicates: in singlicate; n = 1;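 also: KINOMEscan kinase panel screen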
Enter your answer as a number in %; do not include the unit.

# input Quick one: give measured %Inh for CCn1c(-c2ccoc2)nc2cnccc21 [SB-733887]
# output 22

# input Quick one: give measured %Inh for COc1cc2ncn(-c3cc(OCCCc4ccccc4)c(C(N)=O)s3)c2cc1OC [GSK205189]
# output 0

# input Quick one: give measured %Inh for CCC(=O)c1c(-c2ccccc2)c2cc(Cl)ccc2c(=O)n1Cc1cc(C(=O)NC2CC2)n(C)n1
# output 13

# input Quick one: give measured %Inh for O=C(NCc1cccs1)c1cc(C(=O)c2c(Cl)cccc2Cl)c[nH]1 [GW823670]
# output 0

# input Quick one: give measured %Inh for Cc1cccc(-c2nc(Nc3ccc4c(cnn4C)c3)c3ccccc3n2)n1 [GW876731]
# output 0

# input Quick one: give measured %Inh for Cc1cc(Nc2nc(-c3cccc(C)n3)nc3ccccc23)ccn1 [GW872411]
# output 0

# input Quick one: give measured %Inh for CCc1ccc(-c2ccc3c(c2)-c2nn(C)cc2S(=O)(=O)N3C)cc1
# output 0

# input Quick one: give measured %Inh for O=C(Nc1n[nH]c2cc(-c3ccccc3F)ccc12)C1CC1 [SB-733371]
# output 19

# input Quick one: give measured %Inh for COc1cc2ncn(-c3cc(OCc4ccncc4)c(C(N)=O)s3)c2cc1OC [GSK336313]
# output 7

# input Quick one: give measured %Inh for COc1cc2nccc(Nc3ccc(OCc4ccc(NC(C)=O)cc4)cc3)c2cc1OC.Cl [GW440135]
# output 0

# input Quick one: give measured %Inh for COc1cc(Nc2nccc(N3CCC(NC(=O)C(C)c4ccc(Cl)cc4)C3)n2)cc(OC)c1OC (stereo not drawn) [GSK1379757]
# output 0

# input Quick one: give measured %Inh for OCCCNc1nccc(-c2c(-c3cccc(C(F)(F)F)c3)nn3cc(C(F)(F)F)ccc23)n1 [GW630813]
# output 2

# input Quick one: give measured %Inh for Cc1nc(N(C)[C@H]2CN(C(=O)CC#N)CC[C@H]2C)c2cc[nH]c2n1
# output 0

# input Quick one: give measured %Inh for CN(C)c1cc(-c2ccc3c(N)n[nH]c3c2)nc(N)n1 [GSK2219329]
# output 5

# input Quick one: give measured %Inh for Cc1ccc(Oc2ccc(Nc3ncnc4cc[nH]c34)cc2C)cn1
# output 0

# input Quick one: give measured %Inh for FC(F)(F)c1ccc(-c2ncn(CCCN3CCOCC3)c2-c2ccncc2)cc1 [SB-217780]
# output 25

# input Quick one: give measured %Inh for COc1cc(Nc2nccc(N3CCC(NC(=O)C4COc5ccccc5O4)C3)n2)cc(OC)c1OC (stereo not drawn) [GSK1379761]
# output 3

# input Quick one: give measured %Inh for C[C@@H]1CC[C@H](C(=O)NC2CCCCC2)CN1c1cc(-c2ccc3c(N)n[nH]c3c2)nc(N)n1 [GSK2291363]
# output 17

# input Quick one: give measured %Inh for Cc1nn2c(=O)cc(N3CCOCC3)nc2n1Cc1cccc(Cl)c1Cl [GSK2342769]
# output 13

# input Quick one: give measured %Inh for CCS(=O)(=O)c1ccc(OC)c(Nc2ncc(-c3ccc(F)cc3)o2)c1.Cl [GW591947]
# output 0

# input Quick one: give measured %Inh for Nc1nc(-c2ccccc2F)c(-c2ccnc3ccccc23)s1 [GW560459]
# output 0

---

I'd be grateful if you could share measured %Inh for these entries.
Test system: WNK1
Test settings: concentration: 1 μM, replicates: in singlicate; n = 1
Enter your answer as a number in %; do not include the unit.

# input Quick one: give measured %Inh for O=c1cc(N2CCOCC2)nc2n(Cc3ccc(F)c(Cl)c3)ccn12 [GSK2297099]
# output 8

# input Quick one: give measured %Inh for Nc1n[nH]c2ncc(-c3ccccc3)cc12 [SB-517081]
# output 12

# input Quick one: give measured %Inh for CCc1ccc(-c2ccc3c(c2)-c2nn(C)cc2S(=O)(=O)N3C)cc1
# output 6

---

Test system: TESK1
Test settings: concentration: 1 μM, replicates: in singlicate; n = 1
Reported property: %Inh (%)
Enter your answer as a number in %; do not include the unit.

# input Fill in: %Inh on TESK1, entry Nc1nc(-c2ccccc2F)c(-c2ccnc3ccccc23)s1 [GW560459]
# output 12

# input Fill in: %Inh on TESK1, entry O=C(NCCNc1ccnc(Nc2ccc(F)cc2)n1)Nc1ccc2c(c1)OCO2 [GSK1379882]
# output 96.3

# input Fill in: %Inh on TESK1, entry COc1cc2nccc(Nc3ccc(OCc4ccc(NC(C)=O)cc4)cc3)c2cc1OC.Cl [GW440135]
# output 13

# input Fill in: %Inh on TESK1, entry O=C(Nc1n[nH]c2nc(-c3ccccc3)c(Br)cc12)C1CC1 [SB-708998]
# output 7

# input Fill in: %Inh on TESK1, entry CCn1c(-c2nonc2N)nc2ccccc21 [SB-693162/GW549034]
# output 14

# input Fill in: %Inh on TESK1, entry O=C(Nc1ccc2c(c1)OCO2)NC1CCN(c2ccnc(NCc3ccc(F)cc3)n2)CC1 [GSK1379859]
# output 0

# input Fill in: %Inh on TESK1, entry CCCC(=O)Nc1n[nH]c2ncc(-c3cccc4ccccc34)cc12 [SB-642057]
# output 40

# input Fill in: %Inh on TESK1, entry Cc1ccc(-c2ccc3c(ccc4sc5c(c43)NC[C@@H](C)N=C5N(C)C)n2)cn1
# output 0

# input Fill in: %Inh on TESK1, entry COC(=O)c1c(-c2ccccc2)c2cc(Br)ccc2c(=O)n1Cc1ccc(S(C)(=O)=O)cc1
# output 22

# input Fill in: %Inh on TESK1, entry COc1cccc(C2=C(Nc3cccc(C(=O)O)c3)C(=O)NC2=O)c1 [SB-390770]
# output 28

# input Fill in: %Inh on TESK1, entry CCS(=O)c1ccc(-c2coc3ccc(-c4nnc(C)o4)cc23)cc1 (stereo not drawn)
# output 0

# input Fill in: %Inh on TESK1, entry COc1cc2ncn(-c3cc(OCc4ccncc4)c(C(N)=O)s3)c2cc1OC [GSK336313]
# output 0

# input Fill in: %Inh on TESK1, entry COc1cc(OC)cc(-c2cc3cnc(N)nc3nc2NC(=O)NC(C)(C)C)c1
# output 13

# input Fill in: %Inh on TESK1, entry CCCNC(=O)Nc1ccc(Oc2ncnc3ccn(C)c23)cc1
# output 0

# input Fill in: %Inh on TESK1, entry Cc1nn2c(=O)cc(N3CCOCC3)nc2n1Cc1cccc(Cl)c1Cl [GSK2342769]
# output 10

# input Fill in: %Inh on TESK1, entry Cc1cc(Nc2nc(-c3cccc(C)n3)nc3ccccc23)ccn1 [GW872411]
# output 0

# input Fill in: %Inh on TESK1, entry Nc1ncnc2c1ncn2-c1ccc(Cl)cc1 [AH2635]
# output 4

# input Fill in: %Inh on TESK1, entry CN(C)c1cc(-c2ccc3c(N)n[nH]c3c2)nc(N)n1 [GSK2219329]
# output 76

# input Fill in: %Inh on TESK1, entry COc1cc2ncn(-c3cc(OCc4ccc(S(C)(=O)=O)cc4)c(C(N)=O)s3)c2cc1OC [GW869979]
# output 0

# input Fill in: %Inh on TESK1, entry CCC(=O)c1c(-c2ccccc2)c2cc(Cl)ccc2c(=O)n1Cc1cc(S(C)(=O)=O)n(CCC(C)(C)O)n1
# output 21

# input Fill in: %Inh on TESK1, entry CN1C(=O)C(Nc2ccccc2)=C(c2ccccc2)C1=O [SB-300079]
# output 2

# input Fill in: %Inh on TESK1, entry COc1cc2ncn(-c3cc(OCc4ccncc4Br)c(C(N)=O)s3)c2cc1OC [GW854278]
# output 26

# input Fill in: %Inh on TESK1, entry Cn1c(=O)c(F)c(Nc2ccc(I)cc2F)c2c(=O)n(OC[C@H](O)CO)cnc21
# output 31

# input Fill in: %Inh on TESK1, entry COC(=O)c1c(-c2ccccc2)c2cc(Br)ccc2c(=O)n1Cc1ccc(NC(=O)CCC(=O)O)cc1
# output 39

---

Tested on: CDKL5
Test settings: concentration: 1 μM, replicates: in singlicate; n = 1
I'd be grateful if you could share measured %Inh for these entries.
Write down the value, and be sure its unit follows.

# input Quick one: give measured %Inh for Cl.NS(=O)(=O)c1cccc(Nc2cc(-c3ccc(F)cc3)n[nH]2)c1
# output 0%

# input Quick one: give measured %Inh for O=C(Nc1ccc2c(c1)OCO2)NC1CCN(c2ccnc(NCc3ccc(F)cc3)n2)CC1
# output 3%

# input Quick one: give measured %Inh for Nc1nccc2scc(-c3ccc4c(c3)CCN4C(=O)Cc3ccccc3)c12
# output 0%

# input Quick one: give measured %Inh for C[C@@H]1CC[C@H](C(=O)NC2CCCCC2)CN1c1cc(-c2ccc3c(N)n[nH]c3c2)nc(N)n1
# output 4%
